Cited source: a protein production outcome set (Wang et al. 2014)

assay: label from the status in PepcDB records
reportedMetric: protein production

Worked examples follow.
MKNDDLLMQIMMLDFAVQDSALFIDTHPCDKEAMNYFNEAATRLKAAKKEYQKQGHALVNREVGAYQNDYLSAPWPWVGDHKCGCTKNVCNTL | failed
MQKPHLLITSAGRRAKLVEYFVKEFKTGRVSTADCSPLASALYMADQHYIVPKIDEVEYIDHLLTLCQDEGVTALLTLIDPELGLLAQATERFQAIGVTVIVSPYAACELCFDKYTMYEYCLRQGIAHARTYATMASFEEALAAGEVQLPVFVKPRNGSASIEVRRVETVEEVEQLFSKNTDLIVQELLVGQELGVDAYVDLISGKVTSIFIKEKLTMRAGETDKSRSVLRDDVFELVEHVLDGSGLVGPLDFDLFDVAGTLYLSEINPRFGGGYPHAYECGVNFPAQLYRNLMHEINVPQIGQYLDDIYMLKHDTVTLISAAELQKIKR | not failed
GEIIEGCRLPVLRRNQDNEDEWPLAEILSVKDISGRKLFYVHYIDFNRRLDEWVTHERLDLKKIQFPKKEAKTP | not failed
MNDRPNNYILTRESGFKVITELTKGQNCNGAETHPINGELYFNSWNAGQVFRYDFTTQETTPLFTIQDSGWEFHIQFHPSGNYAYIVVVNQHYILRSDYDWKTKRLTTPYIVCGQQGAKDWVDGVGKKARMHAPRQGTFVKNPAYKGSSDEYDFYFCDRENHCIRILTPQGRVTTFAGRGSNGTSGYNDGDLRQEARFNHPEGIVYDEERECFFIGDRENRRIRKIGLEHHHHHH | not failed

Now look at this entry.
Data request: Given "MPDLGLTDAESLGHCLFDTGFGVCGIAWRAFEGKDEAPVVTLFLLPEATAAGTAAAMARRCGGSPTVPPPAIAEVIEKVRRHFRGDLQDFSRVRVEPDGAGPFARAVYSAARDVPAGQIRTYGELARALNRPAAARAVGQALGRNPVPLIIPCHRILGAGGKLGGFSAHGGVATKARMLRLEGVAV" , state its recorded protein production.
Data returned: failed
